Test system: K562
Assay: NCI tumour cell line growth inhibition, 48 h
Activity calls are given as the source filed them. Rule as the data show it: active = GI50 up to about 1.1 µM and inactive = higher.
Answer with one of the outcomes given here: 1 = active, -1 = inactive

Before answering, review these 6 worked examples.
>>> answer_label("Cc1ccc(C(=O)Nc2ccc(CP(=O)(O)O)cc2)cc1NC(=O)c1cccc(N)c1")
-1
>>> answer_label("CCOC(=O)c1[nH]cc(C)c1-c1c[nH]c2ccccc12")
-1
>>> answer_label("COc1cc(S(=O)(=O)Nc2ccc(-c3csc(N4C(=O)CSC4c4cccc(Oc5ccccc5)c4)n3)cc2)ccc1Cl (configuration not stated)")
-1
>>> answer_label("CN(C)CCNc1ccc(CO)c2oc3ccc(O)cc3c(=O)c12")
-1
>>> answer_label("O=CN/C=C/c1ccccc1")
-1
>>> answer_label("Cc1cc(C)c(C(=O)OC(c2ccccc2)C(c2ccccc2)N2CCOCC2)c(C)c1 (configuration not stated)")
-1

Ask | What call does the record list for "C1=Cc2nccc3cc4c(c(c23)N1)OCO4" ?
Reply | -1

Ask | Request: "CC1=C/C(=N\NS(=O)(=O)c2ccc([N+](=O)[O-])cc2)CC(C)(C)C1"
Reply | -1

Ask | Now try "NNc1nc2ccccc2s1" .
Reply | -1

Ask | Cool, now "Cc1cc(C2(c3cc(C)c(O)c4ncccc34)OC(=O)c3ccccc32)c2cccnc2c1O"
Reply | 1

Ask | Also "O=C(CSCC(=O)N/N=C\c1ccc(-c2ccccc2)cc1)N/N=C\c1ccc(-c2ccccc2)cc1" , if possible.
Reply | -1

Ask | What would you report for "COc1ccc2nc(-c3ccc(OC(=O)N(C)C)cc3)cn2c1" ?
Reply | -1

Ask | Would you kindly repeat that for COc1ccc(C(O)C(c2ccc(OCc3ccccc3)cc2)c2ccc(OCc3ccccc3)cc2)cc1 (configuration not stated) ?
Reply | -1

Ask | Could you do the same for C=CCSc1ncnc2c1ncn2C1OC(CO)C(O)C1O (configuration not stated) , please?
Reply | -1

---

Test system: CCRF-CEM
Assay: NCI tumour cell line growth inhibition, 48 h
Calls of active or inactive are those of the source. No stated cut-off is given here; in the data, active = GI50 up to about 1.1 µM and inactive = higher.
A correct response names exactly one class from active, inactive

Before answering, review these 3 worked examples.
>>> answer_label("O=C1c2ccccc2C(=O)c2c1ccc1c3ccccc3n(-c3ccccc3)c21")
"inactive"
>>> answer_label("N#Cc1cc(C#N)c(N)nc1N")
"inactive"
>>> answer_label("COC(=O)[C@H](Cc1ccccc1)NC(=O)[C@H](Cc1ccccc1)NC(=O)[C@@H]1CCCN1C(=O)N[C@H]1C2C=CC(C2)C1C(=O)N1CCC[C@H]1C(=O)N[C@@H](C)C(=O)N[C@H](C(=O)OC)C(C)C (stereo not given in full)")
"inactive"

Ask | For "Cc1cc(Oc2cnc(=O)[nH]c2)cs1" , which call appears in the assay record?
Reply | inactive

Ask | How about "CCNc1cc2c(cc1O)CC[C@@H]1[C@@H]2CC[C@]2(C)[C@@H](O)CC[C@@H]12" ?
Reply | inactive

Ask | And then NNC(=O)C(O)C(O)C(=O)NN (stereo not given) , what is it?
Reply | inactive

Ask | What about this compound? "COc1ccc(C2=Nn3c(nc4sc(-c5ccccc5)cc4c3=O)SC2)cc1"
Reply | inactive

Ask | Quick one: "COc1ccc2c(C)c(Oc3c(Cl)c(Cl)c(O)c(C#N)c3C#N)oc2c1"
Reply | inactive

Ask | Now consider COC(=O)C(N)CCCC(N)C(=O)NC(C)C(=O)NC(CCC(=O)NCCCNc1ccc([N+](=O)[O-])c2[nH]c3ccccc3c(=O)c12)C(N)=O (stereo not given) .
Reply | inactive

Ask | // query: "CS(=O)(=O)c1nc(Cl)c(Cl)c(C#N)c1Cl"
Reply | active

Ask | And then "Cc1c(C(=O)/C=C/C=C/c2ccccc2)[n+]([O-])c2ccccc2[n+]1[O-]" , what is it?
Reply | inactive

Ask | Proceed to "COC(=O)[C@H](CCSC)NC(=O)N[C@H](C)c1ccccc1"
Reply | inactive

Ask | Another: "O=C(CNc1ccccn1)Nn1cnc2ccc(S(=O)(=O)Nc3ccccn3)cc2c1=O"
Reply | inactive

Ask | Another compound to check: COc1ccc(NC(=O)/C(CC2=Nc3ccc([N+](=O)[O-])cc3NC2O)=N\NC(=O)C[N+](C)(C)C)c(OC)c1 (stereo not given)
Reply | inactive

Ask | For CCCCCC/C=C1\CCC(CN2CCOCC2)C1=O (stereo not given) then?
Reply | inactive

Ask | Please give the result for "Sc1nnc(COc2ccc(Cl)cc2)n1-c1ccccc1" too.
Reply | inactive

Ask | What about "O=c1nc(-c2ccccc2)c2c3c(cccn13)CCC2" ?
Reply | inactive

These data points were gathered from ChEMBL document CHEMBL1201862.
